measurement description: Cmax in Sprague-Dawley rat at 2 mg/kg, iv measured up to 24 hrs by LC-MS/MS analysis
Assay type: ADME, organism-based
experimental context: in vivo

{"smiles repr": "CCc1ccc(C(=O)Nc2cc(CN3CCN(CCOCC(=O)NCCCN(C(=O)c4ccc(C)cc4)[C@@H](c4nc5cc(Cl)ccc5c(=O)n4Cc4ccccc4)C(C)C)CC3)cc(C(F)(F)F)c2)cc1C#Cc1cnc2ccnn2c1", "Cmax (µg/mL)": 27}

###

measurement description: Clearance in Sprague-Dawley rat at 2 mg/kg, iv measured up to 24 hrs by LC-MS/MS analysis
Format: ADME, organism-based
experimental context: in vivo

{"smiles repr": "CCc1ccc(C(=O)Nc2cc(CN3CCN(CCOCC(=O)NCCCN(C(=O)c4ccc(C)cc4)[C@@H](c4nc5cc(Cl)ccc5c(=O)n4Cc4ccccc4)C(C)C)CC3)cc(C(F)(F)F)c2)cc1C#Cc1cnc2ccnn2c1", "clearance, mL/min/kg": 1.11}

###

measurement description: Half life in Sprague-Dawley rat at 2 mg/kg, iv measured up to 24 hrs by LC-MS/MS analysis
Type: ADME, organism-based
experimental context: in vivo

{"smiles repr": "CCc1ccc(C(=O)Nc2cc(CN3CCN(CCOCC(=O)NCCCN(C(=O)c4ccc(C)cc4)[C@@H](c4nc5cc(Cl)ccc5c(=O)n4Cc4ccccc4)C(C)C)CC3)cc(C(F)(F)F)c2)cc1C#Cc1cnc2ccnn2c1", "units of measure": "min", "half-life": 191}

###

measurement description: Tmax in Sprague-Dawley rat at 10 mg/kg, po measured up to 24 hrs by LC-MS/MS analysis
Type: ADME, organism-based
experimental context: in vivo
value kind: Tmax (h)

{"smiles repr": "CCc1ccc(C(=O)Nc2cc(CN3CCN(CCOCC(=O)NCCCN(C(=O)c4ccc(C)cc4)[C@@H](c4nc5cc(Cl)ccc5c(=O)n4Cc4ccccc4)C(C)C)CC3)cc(C(F)(F)F)c2)cc1C#Cc1cnc2ccnn2c1", "measured number": 3.33}

###

Activity overview
target of assay: LC3/Epithelial discoidin domain-containing receptor 1 (Homo sapiens, UniProt Q08345+Q9BXW4+Q9GZQ8+Q9H492)
measurement description: Autophagosome tethering activity at DDR1 in human NCI-H23 cells assessed as protein degradation at 0.3 uM measured after 24 hrs by immunoblotting analysis relative to control
Type: cell-based

{"smiles repr": "CCc1ccc(C(=O)Nc2cc(CN3CCN(CCCC(=O)NCCCN(C(=O)c4ccc(C)cc4)[C@@H](c4nc5cc(Cl)ccc5c(=O)n4Cc4ccccc4)C(C)C)CC3)cc(C(F)(F)F)c2)cc1C#Cc1cnc2ccnn2c1", "Activity [%]": 6}
{"smiles repr": "CCc1ccc(C(=O)Nc2cc(CN3CCN(C(=O)COCCOCCNC(=O)COc4c(Br)cc(/C=C5\\C(=O)Nc6ccc(I)cc65)cc4Br)CC3)cc(C(F)(F)F)c2)cc1C#Cc1cnc2ccnn2c1", "Activity [%]": 9}
{"smiles repr": "CCc1ccc(C(=O)Nc2cc(CN3CCN(CCOCC(=O)NCCCN(C(=O)c4ccc(C)cc4)[C@@H](c4nc5cc(Cl)ccc5c(=O)n4Cc4ccccc4)C(C)C)CC3)cc(C(F)(F)F)c2)cc1C#Cc1cnc2ccnn2c1", "Activity [%]": 40}
{"smiles repr": "CCc1ccc(C(=O)Nc2cc(CN3CCN(C(=O)CCCNC(=O)COc4c(Br)cc(/C=C5\\C(=O)Nc6ccc(I)cc65)cc4Br)CC3)cc(C(F)(F)F)c2)cc1C#Cc1cnc2ccnn2c1", "Activity [%]": 17}
{"smiles repr": "CCc1ccc(C(=O)Nc2cc(CN3CCN(C(=O)CCCCCCCNC(=O)COc4c(Br)cc(/C=C5\\C(=O)Nc6ccc(I)cc65)cc4Br)CC3)cc(C(F)(F)F)c2)cc1C#Cc1cnc2ccnn2c1", "Activity [%]": 9}

###

measurement description: Tmax in Sprague-Dawley rat at 2 mg/kg, iv measured up to 24 hrs by LC-MS/MS analysis
Format: ADME, organism-based
experimental context: in vivo

{"smiles repr": "CCc1ccc(C(=O)Nc2cc(CN3CCN(CCOCC(=O)NCCCN(C(=O)c4ccc(C)cc4)[C@@H](c4nc5cc(Cl)ccc5c(=O)n4Cc4ccccc4)C(C)C)CC3)cc(C(F)(F)F)c2)cc1C#Cc1cnc2ccnn2c1", "units of measure": "min", "Tmax": 4.8}

###

measurement description: Half life in Sprague-Dawley rat at 10 mg/kg, po measured up to 24 hrs by LC-MS/MS analysis
Type: ADME, organism-based
experimental context: in vivo

{"smiles repr": "CCc1ccc(C(=O)Nc2cc(CN3CCN(CCOCC(=O)NCCCN(C(=O)c4ccc(C)cc4)[C@@H](c4nc5cc(Cl)ccc5c(=O)n4Cc4ccccc4)C(C)C)CC3)cc(C(F)(F)F)c2)cc1C#Cc1cnc2ccnn2c1", "half-life": "3.99 h"}

###

measurement description: AUC(0 to t) in Sprague-Dawley rat at 2 mg/kg, iv measured up to 24 hrs by LC-MS/MS analysis
Assay type: ADME, organism-based
experimental context: in vivo

{"smiles repr": "CCc1ccc(C(=O)Nc2cc(CN3CCN(CCOCC(=O)NCCCN(C(=O)c4ccc(C)cc4)[C@@H](c4nc5cc(Cl)ccc5c(=O)n4Cc4ccccc4)C(C)C)CC3)cc(C(F)(F)F)c2)cc1C#Cc1cnc2ccnn2c1", "units of measure": "ng·h/mL", "AUC(0-t) at 24 h": 30100}

###

measurement description: AUC(0 to t) in Sprague-Dawley rat at 10 mg/kg, po measured up to 24 hrs by LC-MS/MS analysis
Assay type: ADME, organism-based
experimental context: in vivo
value kind: AUC(0-t) at 24 h

{"smiles repr": "CCc1ccc(C(=O)Nc2cc(CN3CCN(CCOCC(=O)NCCCN(C(=O)c4ccc(C)cc4)[C@@H](c4nc5cc(Cl)ccc5c(=O)n4Cc4ccccc4)C(C)C)CC3)cc(C(F)(F)F)c2)cc1C#Cc1cnc2ccnn2c1", "value kind": "AUC(0-t) at 24 h", "result": "1150 ng·h/mL"}

###

target of assay: LC3/Epithelial discoidin domain-containing receptor 1 (Homo sapiens, UniProt Q08345+Q9BXW4+Q9GZQ8+Q9H492)
measurement description: Autophagosome tethering activity at DDR1 in human NCI-H23 cells assessed as protein degradation at 0.3 uM measured after 24 hrs by immunoblotting analysis relative to control
Assay type: cell-based
Activity overview

{"smiles repr": "CCc1ccc(C(=O)Nc2cc(CN3CCN(CC(=O)NCCCN(C(=O)c4ccc(C)cc4)[C@@H](c4nc5cc(Cl)ccc5c(=O)n4Cc4ccccc4)C(C)C)CC3)cc(C(F)(F)F)c2)cc1C#Cc1cnc2ccnn2c1", "Activity [%]": 4}
{"smiles repr": "CCc1ccc(C(=O)Nc2cc(CN3CCN(CCCCCC(=O)NCCCN(C(=O)c4ccc(C)cc4)[C@@H](c4nc5cc(Cl)ccc5c(=O)n4Cc4ccccc4)C(C)C)CC3)cc(C(F)(F)F)c2)cc1C#Cc1cnc2ccnn2c1", "Activity [%]": 13}
{"smiles repr": "CCc1ccc(C(=O)Nc2cc(CN3CCN(CCOCCOCC(=O)NCCCN(C(=O)c4ccc(C)cc4)[C@@H](c4nc5cc(Cl)ccc5c(=O)n4Cc4ccccc4)C(C)C)CC3)cc(C(F)(F)F)c2)cc1C#Cc1cnc2ccnn2c1", "Activity [%]": 0}
{"smiles repr": "CCc1ccc(C(=O)Nc2cc(CN3CCN(CCCCCCCC(=O)NCCCN(C(=O)c4ccc(C)cc4)[C@@H](c4nc5cc(Cl)ccc5c(=O)n4Cc4ccccc4)C(C)C)CC3)cc(C(F)(F)F)c2)cc1C#Cc1cnc2ccnn2c1", "Activity [%]": 6}
{"smiles repr": "CCc1ccc(C(=O)Nc2cc(CN3CCN(CCOCCOCCOCC(=O)NCCCN(C(=O)c4ccc(C)cc4)[C@@H](c4nc5cc(Cl)ccc5c(=O)n4Cc4ccccc4)C(C)C)CC3)cc(C(F)(F)F)c2)cc1C#Cc1cnc2ccnn2c1", "Activity [%]": 0}
{"smiles repr": "CCc1ccc(C(=O)Nc2cc(CN3CCN(CCCCCCCCCC(=O)NCCCN(C(=O)c4ccc(C)cc4)[C@@H](c4nc5cc(Cl)ccc5c(=O)n4Cc4ccccc4)C(C)C)CC3)cc(C(F)(F)F)c2)cc1C#Cc1cnc2ccnn2c1", "Activity [%]": 0}

###

measurement description: Oral bioavailability in Sprague-Dawley rat at 10 mg/kg measured up to 24 hrs by LC-MS/MS analysis
Type: ADME, organism-based
experimental context: in vivo

{"smiles repr": "CCc1ccc(C(=O)Nc2cc(CN3CCN(CCOCC(=O)NCCCN(C(=O)c4ccc(C)cc4)[C@@H](c4nc5cc(Cl)ccc5c(=O)n4Cc4ccccc4)C(C)C)CC3)cc(C(F)(F)F)c2)cc1C#Cc1cnc2ccnn2c1", "bioavailability / %": 0.77}

###

measurement description: Cmax in Sprague-Dawley rat at 10 mg/kg, po measured up to 24 hrs by LC-MS/MS analysis
Type: ADME, organism-based
experimental context: in vivo
value kind: Cmax (ng/mL)

{"smiles repr": "CCc1ccc(C(=O)Nc2cc(CN3CCN(CCOCC(=O)NCCCN(C(=O)c4ccc(C)cc4)[C@@H](c4nc5cc(Cl)ccc5c(=O)n4Cc4ccccc4)C(C)C)CC3)cc(C(F)(F)F)c2)cc1C#Cc1cnc2ccnn2c1", "measured number": 226}
